The reported measurements were obtained from ChEMBL document CHEMBL2380226.

# tested.target: Prostaglandin G/H synthase 1 (Ovis aries)
# Sequence (P05979 whole entry): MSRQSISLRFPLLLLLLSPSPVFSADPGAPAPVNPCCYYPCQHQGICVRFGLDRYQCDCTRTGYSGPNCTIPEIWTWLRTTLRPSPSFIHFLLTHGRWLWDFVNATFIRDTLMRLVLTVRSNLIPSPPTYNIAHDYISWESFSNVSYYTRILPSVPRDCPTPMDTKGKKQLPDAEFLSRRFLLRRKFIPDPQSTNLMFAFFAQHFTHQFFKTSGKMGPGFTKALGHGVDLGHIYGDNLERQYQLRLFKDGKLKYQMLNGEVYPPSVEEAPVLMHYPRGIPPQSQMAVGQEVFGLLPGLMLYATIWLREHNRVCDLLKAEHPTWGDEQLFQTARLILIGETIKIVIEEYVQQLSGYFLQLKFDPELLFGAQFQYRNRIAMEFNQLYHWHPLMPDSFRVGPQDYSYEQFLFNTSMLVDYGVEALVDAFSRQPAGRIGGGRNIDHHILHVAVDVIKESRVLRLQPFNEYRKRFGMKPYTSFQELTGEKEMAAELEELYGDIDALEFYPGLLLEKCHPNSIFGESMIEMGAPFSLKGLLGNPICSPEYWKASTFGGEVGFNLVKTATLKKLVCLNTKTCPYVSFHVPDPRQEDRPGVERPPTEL
# procedure.details: Inhibition of ram seminal vesicle COX-1 using arachidonic acid as substrate assessed as production of PGF2alpha by enzyme immunoassay in presence of stannous chloride
The entries below come with measured IC50 values attached.
measurement.kind: IC50 (µM)

structure_smiles_string=CC(C)(C)C1=CC(=NNC(=O)c2cccnc2)C=C(C(C)(C)C)C1=O tested_target="Prostaglandin G/H synthase 1 (Ovis aries)" measured=48.6
structure_smiles_string=CC(C)(C)C1=CC(=NNC(=O)c2ccccc2)C=C(C(C)(C)C)C1=O tested_target="Prostaglandin G/H synthase 1 (Ovis aries)" measured=14
structure_smiles_string=CC(C)(C)c1cc(/C=C2\SC(N)=NC2=O)cc(C(C)(C)C)c1O tested_target="Prostaglandin G/H synthase 1 (Ovis aries)" measured=35
structure_smiles_string=CC(C)(C)C1=CC(=NNC(=O)c2ccncc2)C=C(C(C)(C)C)C1=O tested_target="Prostaglandin G/H synthase 1 (Ovis aries)" measured=55.7
